Measured normalized growth, listed per entry for reference.
protocol: chemical genetic growth profiling, strain panel (AID 1159580);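 further: tested at 20 µM; growth read once vehicle control cultures reached saturation at 30 °C; 1 = growth at the plate median or of vehicle wells; lower values mean less growth of the strain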
conditions used: S. cerevisiae deletion strains, growth OD, locus YLR262C, strain YPT6, stronger effect = lower value
Among all 5,500 compounds or so, about 2,000 (36%) were called active. About 18% were inconclusive and are not listed. The list shows a part of the results. Where a SMILES comes first, the peptide text is derived from it.

compound	normalized growth
Nc1ccncc1	1.02
CC1(C)C(=O)C=C[C@@]2(C)C1CC(=O)[C@@]1(C)C3=CC(=O)O[C@@H](c4ccoc4)[C@]3(C)CCC12 (stereo partly drawn)	1.04
NCCCCC(N)C(=O)NC(Cc1ccc(O)cc1)C(=O)NC(CCCCN)C(=O)O (stereo not drawn) (H-Lys-Tyr-Lys-OH; configuration not given here)	1
CC(=O)O[C@H]1C[C@@H](OC(C)=O)C(C)(C)C2CC(=O)[C@]3(C)C(CC[C@@]4(C)[C@H](c5ccoc5)OC(=O)[C@H]5O[C@]543)[C@]21C (stereo partly drawn)	1.07
Nc1cc(-c2ccncc2)c[nH]c1=O	0.978
CC(=O)O[C@H]1CC[C@]2(C)C3=CC(=O)[C@@]4(C)C(C[C@@H]5OC6(OCC(C)CC6Br)[C@@H](C)[C@@H]54)C3CC[C@H]2C1 (stereo partly drawn)	1.04
CC1CCC2(OC1)OC1CC3C4CCC5C[C@@H](O)CCC5(C)C4=CCC3(C)C1[C@@H]2C (stereo partly drawn)	1.04
CCCCCC1C(=O)CCC1CC(=O)OC (stereo not drawn)	1.05

* * *

protocol: chemical genetic growth profiling, strain panel (AID 1159580);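 further: tested at 20 µM; growth read once vehicle control cultures reached saturation at 30 °C; 1 = growth at the plate median or of vehicle wells; lower values mean less growth of the strain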
conditions used: S. cerevisiae deletion strains, growth OD, locus YBR021W, strain FUR4, stronger effect = lower value
Screen size: about 5,500 compounds; about 2,000 (36%) were called active. Another 18% or so got no clear call; they are omitted. Some of the results follow.
Attribute: normalized growth
measured endpoint: normalized growth

structure smiles	measured
O=C(O)CCCOc1ccc(Cl)cc1Cl	0.97
S=P(N1CC1)(N1CC1)N1CC1	0.946
COC(=O)CCCOc1ccc(Cl)cc1Cl	0.931
Clc1ccc2c(c1)C(N1CCNCC1)=Nc1ccccc1O2	0.989
COc1c(Cl)ccc(Cl)c1C(=O)O	1.02
CN1CCN(C2=Nc3ccccc3Oc3ccc(Cl)cc32)CC1	1.01

* * *

protocol: chemical genetic growth profiling, strain panel (AID 1159580);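 further: tested at 20 µM; growth read once vehicle control cultures reached saturation at 30 °C; 1 = growth at the plate median or of vehicle wells; lower values mean less growth of the strain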
conditions used: S. cerevisiae deletion strains, growth OD, locus YOR069W, strain VPS5, stronger effect = lower value
Out of some 5,500 compounds screened, about 2,000 (36%) were called active. Not shown: some 18% with an inconclusive outcome. The list shows a part of the results.
Here the recorded normalized growth is given for each entry.
measured endpoint: normalized growth

compound	measured endpoint	measured
O=c1cc(-c2ccccc2)oc2c(O)c(O)ccc12	normalized growth	0.971
C[C@@H](N)[C@@H](O)c1ccccc1	normalized growth	1
O=C(O)Cc1cc(I)c(Oc2cc(I)c(O)c(I)c2)c(I)c1	normalized growth	0.962
CCC(=O)c1ccc2c(c1)N(CC(C)N(C)C)c1ccccc1S2 (stereo not drawn)	normalized growth	0.996
Cc1cc(=O)oc2c(O)c(O)ccc12	normalized growth	1.01
COc1cc([C@@H]2c3cc4c(cc3[C@H](OC(C)=O)[C@H]3COC(=O)[C@@H]23)OCO4)cc(OC)c1OC	normalized growth	1.01
O=C(Nc1ccccc1)Nc1ccccc1	normalized growth	1
CCN(CC)C(C)CN1c2ccccc2Sc2ccccc21 (stereo not drawn)	normalized growth	0.985
CC(CN1c2ccccc2Sc2cccnc21)N(C)C (stereo not drawn)	normalized growth	1
CC1CCC2(OC1)OC1CC3C4CCC5C[C@@H](O)CCC5(C)C4=CCC3(C)C1[C@@H]2C (stereo partly drawn)	normalized growth	0.981
CNCCCN1c2ccccc2CCc2ccccc21	normalized growth	1.01
CCCCSP(=O)(SCCCC)SCCCC	normalized growth	1.02
COc1c(Cl)ccc(Cl)c1C(=O)O	normalized growth	1
C=C1C(C2(C)C=CC(=O)C(C)(C)C2CC(=O)OC)CC[C@@]2(C)[C@H](c3ccoc3)OC(=O)C3OC132 (stereo partly drawn)	normalized growth	0.994
CC(=O)O[C@H]1CC[C@]2(C)C3C(=O)[C@@H](OC(C)=O)[C@@]4(C)C(C[C@@H]5O[C@]6(CCC(C)CO6)[C@@H](C)[C@@H]54)C3CC[C@H]2C1 (stereo partly drawn)	normalized growth	0.996
O=c1cc(-c2cc(O)c(O)c(O)c2)oc2cc(O)cc(O)c12	normalized growth	1
CC(=O)OCC(=O)[C@@]1(O)[C@H](OC(C)=O)CC2C3CCC4=CC(=O)C=C[C@]4(C)[C@@]3(F)[C@@H](O)C[C@@]21C (stereo partly drawn)	normalized growth	0.993
c1ccc2c(c1)CN1CCCC1=N2	normalized growth	0.998
CC(CN(C)C)CN1c2ccccc2CCc2ccccc21 (stereo not drawn)	normalized growth	1.01
COc1cc2c(cc1-c1cc3cc4ccoc4cc3oc1=O)OCO2	normalized growth	0.977
CCCCC[C@H](CC(=O)NO)C(=O)N[C@H](C(=O)N1CCC[C@H]1CO)C(C)C	normalized growth	1.01
CC(=O)O[C@H]1C[C@@H](OC(C)=O)C(C)(C)C2CC(=O)[C@]3(C)C(CC[C@@]4(C)[C@H](c5ccoc5)OC(=O)[C@H]5O[C@]543)[C@]21C (stereo partly drawn)	normalized growth	1
CC(CN(C)C)CN1c2ccccc2Sc2ccccc21 (stereo not drawn)	normalized growth	0.984
N[C@@H](Cc1cc(I)c(Oc2ccc(O)c(I)c2)c(I)c1)C(=O)O	normalized growth	1
CC(=O)Nc1nnc(S(N)(=O)=O)s1	normalized growth	0.826
O=c1cc(-c2ccccc2)oc2cc(O)cc(O)c12	normalized growth	0.988
Cc1cccc(Nc2ccncc2S(=O)(=O)NC(=O)NC(C)C)c1	normalized growth	1
NC(Cc1ccc(F)cc1)C(=O)O (stereo not drawn)	normalized growth	1
COc1cc([C@H]2Oc3cc([C@H]4Oc5cc(O)cc(O)c5C(=O)[C@@H]4O)ccc3O[C@@H]2CO)ccc1O	normalized growth	1.01
CC1(C)C(O)CC(O)C2(C)C1CC(O)C1(C)C2CCC2(C)C(c3ccoc3)OC(=O)C3OC321 (stereo not drawn)	normalized growth	1
COc1cc(OC)c2c3c1C(=O)c1c(OC)cc(C)c4c(OC)cc(c-3c14)C(C)(C)C2=O	normalized growth	1
CC(=O)Nc1ccccc1	normalized growth	0.994
CCCC(CCC)C(=O)O	normalized growth	0.985
NC(N)=NCCC[C@@H](NC(=O)[C@@H](N)Cc1ccc(O)cc1)C(=O)O	normalized growth	1.01
COc1cc2c(cc1/C=C/C(=O)c1cc(OC)c(OC)cc1OC)OCO2	normalized growth	1.01
NS(=O)(=O)c1cc2c(cc1Cl)NC(C1CC3C=CC1C3)NS2(=O)=O (stereo not drawn)	normalized growth	0.995
CC12CC3CC(C)(C1)CC(N)(C3)C2	normalized growth	1.01
COc1cc(OC)c(OC)cc1C=O	normalized growth	0.989
NC(N)=NCCCC(NC(=O)C(N)Cc1ccc(O)cc1)C(=O)O (stereo not drawn)	normalized growth	0.989
CCC(=O)Nc1ccc(Cl)c(Cl)c1	normalized growth	1.01
C=C1C2CC[C@@]3(C)[C@H](c4ccoc4)OC(=O)C[C@]13O[C@H]1CC(O)C(C)(C)C(CC(=O)OC)[C@@]21C (stereo partly drawn)	normalized growth	1.01
C[C@]12C=CC(=O)C=C1CCC1C3C[C@@H](O)[C@](O)(C(=O)CO)[C@@]3(C)C[C@H](O)[C@@]12F (stereo partly drawn)	normalized growth	1.01
C=C1C2=CC(=O)O[C@@H](c3ccoc3)[C@]2(C)CCC1[C@@]1(C)C=CC(=O)C(C)(C)[C@@H]1CC(=O)OC (stereo partly drawn)	normalized growth	1

* * *

protocol: chemical genetic growth profiling, strain panel (AID 1159580);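 further: tested at 20 µM; growth read once vehicle control cultures reached saturation at 30 °C; 1 = growth at the plate median or of vehicle wells; lower values mean less growth of the strain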
conditions used: S. cerevisiae deletion strains, growth OD, locus YDR150W, strain NUM1, stronger effect = lower value
In all, about 5,500 compounds went through this assay and about 2,000 (36%) were called active. Not shown: some 18% with an inconclusive outcome. This is one part of the list. Where a SMILES comes first, the peptide text is derived from it.

compound	normalized growth
O=C(NCc1nc(-c2ccc(C(F)(F)F)cc2)no1)Nc1ccc(F)cc1F	1.03
CC(C)CCCC(C)C1CCC2C3CC[C@H]4CCCC[C@]4(C)C3CC[C@]12C (stereo partly drawn)	0.965
CCC(=O)Nc1ccc(Cl)c(Cl)c1	0.998
Cc1nn(Cc2n[nH]c(=S)o2)c(C)c1Br	0.933
O=c1cc(-c2ccccc2)oc2cc(O)cc(O)c12	0.973
NCCCCC(N)C(=O)NC(Cc1ccc(O)cc1)C(=O)NC(CCCCN)C(=O)O (stereo not drawn) (H-Lys-Tyr-Lys-OH; configuration not given here)	0.999
C[C@H]1C2Cc3ccc(O)cc3[C@]1(C)CCN2CC1CC1	1
CC(CN1c2ccccc2Sc2ccccc21)N(C)C (stereo not drawn)	0.99
C[C@H](N)CN1CCc2ccc(Br)cc21	1
N#C/C(=C\c1cccc(O)c1)C(=O)O	0.974
C[C@H](CCC(=O)O)[C@H]1CCC2C3C(CC[C@@]21C)[C@@]1(C)CC[C@@H](O)C[C@H]1C[C@@H]3O (stereo partly drawn)	0.997
CS(=N)(=O)CC[C@H](N)C(=O)O (stereo partly drawn)	1.02
CC(=O)Nc1ccccc1	0.983
C=C1C2CC[C@@]3(C)[C@H](c4ccoc4)OC(=O)C[C@]13O[C@H]1CC(O)C(C)(C)C(CC(=O)OC)[C@@]21C (stereo partly drawn)	0.98
CC1(C)C(O)CC(O)C2(C)C1CC(O)C1(C)C2CCC2(C)C(c3ccoc3)OC(=O)C3OC321 (stereo not drawn)	0.998
Cc1ccc(OCc2nnc(SCC(=O)Nc3cccc4c3OCO4)n2-c2ccccc2)c2c1CCC2	0.982
CN(C)C(=O)Nc1ccc(Cl)c(Cl)c1	0.993
CCCCS(=N)(=O)CCC(N)C(=O)O (stereo not drawn)	1.01
Cc1cc(CN2CC(C)OC(C)C2)cc(C)c1O (stereo not drawn)	1.08
CCCC(CCC)C(=O)O	0.981
NNC(=O)c1ccccc1O	0.892
CSC(=NC(=O)c1c(Cl)cccc1Cl)SC	0.992
O=C(O)CC(CC(=O)Nc1ccc(I)cc1F)c1ccc(C(F)(F)F)cc1 (stereo not drawn)	0.972
NC(N)=NC(=O)Cc1c(Cl)cccc1Cl	0.997
CC(CCC(=O)O)[C@H]1CCC2C3CC[C@@H]4C[C@H](O)CC[C@]4(C)C3C[C@H](O)[C@@]21C (stereo partly drawn)	1.01
N/C(=N/O)c1csc(-c2ccc(F)cc2F)n1	0.968
CC(CN(C)C)CN1c2ccccc2Sc2ccccc21 (stereo not drawn)	1.01
COC(=O)CCC(C)[C@H]1CCC2C3C(C[C@H](O)[C@@]21C)[C@@]1(C)CC[C@@H](O)C[C@H]1C[C@H]3O (stereo partly drawn)	1.02
O=c1cc(-c2ccccc2)oc2c(O)c(O)ccc12	0.984
COC(=O)CCC(=O)O[C@H]1CCC2(C)C(CCC3C2C(=O)[C@@H](O)C2(C)C3CC3OC4(CCC(C)CO4)[C@@H](C)C32)C1 (stereo partly drawn)	1
CC(CCC(=O)O)[C@H]1CCC2C3CC[C@@H]4CCCC[C@]4(C)C3CC[C@@]21C (stereo partly drawn)	0.995
N[C@@H]1[C@@H](O)[C@H](O)[C@@H](CO)O[C@H]1O	1
COc1cc2c(cc1-c1cc3cc4ccoc4cc3oc1=O)OCO2	0.991
COc1cc2c(cc1/C=C/C(=O)c1cc(OC)c(OC)cc1OC)OCO2	1.02
O=C(Nc1ccccc1)Nc1ccc(C(F)(F)F)cc1Br	0.957
CN(C)N=Nc1nc[nH]c1C(N)=O	1.01
CNCCCN1c2ccccc2CCc2ccccc21	1.01
O=C(Nc1ccccc1)Nc1ccccc1	1.03
Cc1cc(=O)oc2c(O)c(O)ccc12	1.01
Nc1ccncc1	1.02
Nc1ccn(C2O[C@H](CO)[C@@H](O)[C@H]2O)c(=O)n1 (stereo partly drawn)	0.962
COc1ccc(-c2ccc(C=C(C#N)C#N)s2)cc1	0.967
CCCCC[C@H](CC(=O)NO)C(=O)N[C@H](C(=O)N1CCC[C@H]1CO)C(C)C	1.02
